target: M. truncatula GSII-1a (Medicago truncatula, UniProt O04998); assay: GS synthetase reaction inhibition, GSII-1a; assay type: biochemical; conditions: MSO titration using 20 mM glutamate, His-tagged enzyme; read-out: IC50 (concentration of inhibitor reducing the GS activity by 50%)
Sequence (O04998 1-356): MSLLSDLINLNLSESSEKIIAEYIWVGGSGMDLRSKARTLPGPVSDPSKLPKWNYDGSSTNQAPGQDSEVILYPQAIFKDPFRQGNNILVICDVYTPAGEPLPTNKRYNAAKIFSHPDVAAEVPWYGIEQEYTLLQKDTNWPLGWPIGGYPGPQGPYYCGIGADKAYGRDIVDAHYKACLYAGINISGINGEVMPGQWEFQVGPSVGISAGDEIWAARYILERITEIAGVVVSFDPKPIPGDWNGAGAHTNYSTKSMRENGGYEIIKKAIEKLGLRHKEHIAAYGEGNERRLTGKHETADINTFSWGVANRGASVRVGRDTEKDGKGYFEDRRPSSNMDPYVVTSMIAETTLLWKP
pIC50: −log10 of the molar value.
MEASUREMENT KIND: pIC50

1. CS(=N)(=O)CC[C@H](N)C(=O)O (stereo partly shown) [MSO, methionine-S-sulfoximine] ... 2.02

---

target: M. truncatula GSII-1a (Medicago truncatula, UniProt O04998); assay: GS synthetase reaction inhibition, GSII-1a; assay type: biochemical
MEASUREMENT KIND: IC50 (µM)

1) CP(=O)(O)CC[C@H](N)C(=O)O ... 760
